MEASURED TARGET: Cytochrome P450 2B1 (Rattus norvegicus)
Sequence (P00176 whole entry): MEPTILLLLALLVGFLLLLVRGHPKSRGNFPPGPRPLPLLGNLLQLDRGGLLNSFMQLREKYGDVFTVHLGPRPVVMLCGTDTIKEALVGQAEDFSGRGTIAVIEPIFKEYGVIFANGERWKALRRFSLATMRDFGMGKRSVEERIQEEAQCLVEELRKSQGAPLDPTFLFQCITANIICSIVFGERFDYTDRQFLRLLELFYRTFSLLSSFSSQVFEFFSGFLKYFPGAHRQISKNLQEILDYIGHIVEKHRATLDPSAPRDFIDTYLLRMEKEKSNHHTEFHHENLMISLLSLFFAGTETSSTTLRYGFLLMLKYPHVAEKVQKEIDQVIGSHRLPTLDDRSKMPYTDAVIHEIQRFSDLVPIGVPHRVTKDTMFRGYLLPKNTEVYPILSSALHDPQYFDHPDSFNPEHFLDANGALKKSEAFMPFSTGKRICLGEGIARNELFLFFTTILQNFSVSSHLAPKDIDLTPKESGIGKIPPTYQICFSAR
ASSAY NOTES: Inhibitory potency to aminopyrine N-demethylase activity (P450) in hepatic microsomes from phenobarbitone-induced rats.
pIC50: −log10 of the molar value.
QUANTITY: pIC50

> print(dat)
                                    molecule  quantitative.readout
 1                        NCc1nc2ccccc2[nH]1                  3.34
 2                   c1ccc2[nH]c(C3CC3)nc2c1                  3.60
 3         Cc1nc2cc(NC(=O)c3ccccc3)ccc2[nH]1                  3.52
 4                     Cc1nc2cc(Cl)ccc2[nH]1                  3.82
 5                CC(=O)Nc1ccc2nc(C)[nH]c2c1                  2.90
 6             CCCCC(=O)Nc1ccc2nc(C)[nH]c2c1                  3.38
 7              O=[N+]([O-])c1ccc2[nH]cnc2c1                  3.51
 8                         Fc1ccc2[nH]cnc2c1                  3.36
 9                   Cc1nc2c(C)c(C)ccc2[nH]1                  3.60
10                      Cc1ccc2nc(C)[nH]c2c1                  3.32
11                         Cc1cccc2[nH]cnc12                  3.28
12                      CCCCc1nc2ccccc2[nH]1                  3.92
13                       ClCc1nc2ccccc2[nH]1                  3.85
14                     CCc1nc2ccc(C)cc2[nH]1                  3.57
15                    CC(C)Cc1nc2ccccc2[nH]1                  3.80
16                  CC(C)(C)c1nc2ccccc2[nH]1                  3.52
17               c1cncc(-c2nc3ccccc3[nH]2)c1                  3.70
18                  FC(F)(F)c1nc2ccccc2[nH]1                  3.59
19                     CC(C)c1nc2ccccc2[nH]1                  3.27
20                         Cc1ccc2[nH]cnc2c1                  3.24
21            CC(=O)Nc1cc(Cl)cc2[nH]c(C)nc12                  3.51
22                        Clc1ccc2[nH]cnc2c1                  3.80
23  OC(c1ccccc1)c1nc2ccccc2[nH]1 (stereo not drawn)                  3.80
24                 CCCc1nc2cc(C)c(C)cc2[nH]1                  3.96
25              O=[N+]([O-])c1cccc2[nH]cnc12                  3.33
26          O=[N+]([O-])c1cc(Cl)cc2[nH]cnc12                  3.89
27           Cc1nc2ccc([N+](=O)[O-])cc2[nH]1                  3.66
28            CCCCCc1nc2cc(NC(C)=O)ccc2[nH]1                  3.80
